# test_system: human Claudin 18.2 (hCLDN18.2) (human, UniProt P56856-2 1-261)
# test_summary: cell-based or functional assay
The label True is reserved for ADCC EC50 strictly under 0.05 µg/mL; False covers values equal to or above it.

Study these solved cases before continuing.
binder: ch-48H1 (antibody, V domains shown, also called chimeric antibody of clone 48H1) VH: QVQLQQPGAELVKPGTSVKLSCKASGYIFTNYWTHWMKQRPGQGLEWIGMIHPNSGSSNYNEKFKSKATLTVDRSSSTVYMQLRRLTSEDSAVYYCTRIHYGNSMDYWGQGTSVTVSS VL: DIVMTQSPSSLTVTAGEKVTMSCKSSQSLFNSGNQKNYLTWYQQKPGQPPKLLIYWASTWESGVPDRFTGSGSGTDFTLTISSVQAEDLAVYYCQNAYSYPFTFGSGTKLEIK
category: True

binder: ch-229C9 (antibody, V domains shown, also called chimeric antibody of clone 229C9) VH: DVQLQESGPDLVKPSQSLSLICTVTGYSITSGYSWHWIRQFPGNKLEWMGYIHYSGGTNYNPSLKSRISFTRDTSKNQFFLQLNSVTTEDTATYYCARLERGNSFAYWGQGTLVTVSA VL: DIVMTQSPSSLTVTAGEKVTMSCKSTQSLLNSGNQKNYLTWYQQKPGQPPKLLIYWASTRESGVPDRFTGSGSGTDFTLTISSLQAEDLAVYYCQNDYFYPFTFGSGTKLEIK
category: True

q: Is ADCC EC50 of ch-299B2 (antibody, V domains shown, also called chimeric antibody of clone 299B2) VH: QVQLKQSGPELVRPGASVKLSCKTSGYIFTNYWIHWVKQRSGQGLEWVVRIYPGTGNTYYNEKFTGKATLTADKSSSTAYMQLSSLKYEDSAVYFCSREGYGKGNSMDYWGQGTSVTVSS VL: DIVMTQSPSSLTVTAGEKVTMNCKSSQSLLNSGNQKNYLTWYQQKPGQPPKLLFYWASTRESGVPDRFTGSGSGTDFTLTISSVQAEDLAVYHCQNAYYYPYTFGGGTKLEMK strictly below 0.05 µg/mL?
a: True

q: Criterion: ADCC EC50 strictly below 0.05 µg/mL. Is it met by ch-43F5 (antibody, V domains shown, also called chimeric antibody of clone 43F5) VH: QVQLQQPGAELVKPGTSVKLSCKASGYTFTSYWTHWVKQRPGQGLEWIGMIHPNSGSSNYNEKFKSKATLTVDKSSSTAYMQLRRLTSEDSAVYYCTRIHYGNAMDYWGQGTSVTVSS VL: DIVMTQSPSSLTVTAGEKVTMTCKSSQSLLNSGNQKNYLTWYQQKPGQPPKLLIYWASTRESGVPDRFTGSGSGTDFTLTISSVQAEDLAIYYCQNDYSFPFTFGSGTKLEIK ?
a: False

q: Decide: ADCC EC50 of ch-287F12 (antibody, V domains shown, also called chimeric antibody of clone 287F12) VH: QIQLVQSGPELKRPGETVRISCKASGFTFTTAGMHWVQKMAGKGLKWLGWTNTHSGEPKYAEDFKGRFAFSLDTSGSDAYLQIGNLKYEDAATYFCAKWGRGNALDYWGQGTSVTVSS VL: DIVMTQSPSSLTVTAGEKVTMTCKSSQSLLNSGNQKNYLTWYQQKPGQPPKLLIYWASTRESGVPDRFTGSGSGTDFTLTINTVQAEDLAVYYCQNTYSYPLTFGGGTKLELR strictly below 0.05 µg/mL?
a: True
